Source of measurements: ChEMBL document CHEMBL3879916

target: Prokineticin receptor 1 (Homo sapiens); assay: Antagonist activity at human PKR1 expressed in RBL2H3 cells assessed as inhibition of prokineticin1-mediated intracellular calcium release preincubated for 10 mins followed by PK1 addition by FLIPR assay
Sequence (Q8TCW9 whole entry): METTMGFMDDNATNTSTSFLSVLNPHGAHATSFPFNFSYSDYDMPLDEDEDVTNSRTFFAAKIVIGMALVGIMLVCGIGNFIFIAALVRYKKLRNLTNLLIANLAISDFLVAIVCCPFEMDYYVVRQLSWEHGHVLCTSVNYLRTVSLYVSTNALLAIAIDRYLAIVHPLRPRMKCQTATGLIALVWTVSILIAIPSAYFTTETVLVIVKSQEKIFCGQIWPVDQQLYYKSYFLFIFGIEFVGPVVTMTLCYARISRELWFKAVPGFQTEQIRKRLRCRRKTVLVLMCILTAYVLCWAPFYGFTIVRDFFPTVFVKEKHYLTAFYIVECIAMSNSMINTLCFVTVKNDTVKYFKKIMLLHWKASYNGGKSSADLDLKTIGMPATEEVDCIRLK
REPORTED METRIC: IC50 (nM)

>>> value_observed("Cc1n[nH]c(C)c1S(=O)(=O)N1CCC(=C(F)c2ccc(F)cc2F)CC1")
1630
